ASSAY TARGET: T1, 4H953-bN
T1 chain: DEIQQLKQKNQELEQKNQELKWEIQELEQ
PROCEDURE DETAILS: two-hybrid library CCNG1;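 also: natural log of median RNA to DNA barcode read ratio; higher means stronger binding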
READOUT TYPE: interaction score

Known results for binders:
| BINDER | READOUT TYPE | RESULT |
| --- | --- | --- |
| DEIQQLKQEIQELEQKNQELEWKNQELKQ [4H568-bN] | interaction score | -1.93 |
| DEIQQLKQKIQELEQENQELKWKIQELEQ [4H797-bN] | interaction score | -0.455 |
| DENQQLEQENQELEQEIQELEWKIQELKQ [4H1158-bN] | interaction score | 0.0849 |

Consider the following items and state reported interaction score for each.
1. DENQQLEQENQELEQKIQELKWEIQELEQ [4H1193-bN]
2. DKNQQLKQKNQELEQKIQELEWEIQELEQ [4H4001-bN]
3. DEIQQLEQKIQELKQKNQELEWEIQELKQ [4H370-bN]
4. DEIQQLEQKNQELKQEIQELKWKIQELKQ [4H462-bN]
5. DEIQQLEQENQELEQKIQELKWEIQELKQ [4H170-bN]

Return:
-0.991
-1.5
-1.96
-0.25
-1.71

Batch of 5 binders: report interaction score for each.
1. DEIQQLEQKIQELKQEIQELKWENQELEQ [4H331-bN]
2. DEIQQLKQKIQELKQENQELEWKNQELEQ [4H855-bN]
3. DEIQQLEQKNQELKQEIQELKWEIQELEQ [4H457-bN]
4. DENQQLEQKIQELEQKIQELKWKNQELKQ [4H1328-bN]
5. DEIQQLKQKIQELKQKNQELEWENQELEQ [4H883-bN]

Return:
1: -0.578; 2: -0.67; 3: -0.785; 4: -0.513; 5: -1.82

For every listed record, write down its interaction score.
1. DENQQLKQKIQELEQKNQELEWKIQELEQ [4H1845-bN]
2. DKNQQLEQEIQELKQKNQELEWEIQELEQ [4H3185-bN]
3. DKIQQLKQENQELEQKIQELKWEIQELEQ [4H2729-bN]
4. DEIQQLKQEIQELEQKNQELKWKNQELEQ [4H575-bN]
5. DKIQQLKQEIQELEQKNQELEWEIQELKQ [4H2610-bN]
6. DEIQQLKQKIQELEQEIQELKWENQELKQ [4H780-bN]

Return:
1. -1.04
2. -1.45
3. -0.965
4. 0.476
5. -0.363
6. -0.748

Give interaction score for all binders that follow.
1. DENQQLKQKIQELEQKIQELEWKNQELEQ [4H1831-bN]
2. DKIQQLKQEIQELEQENQELKWEIQELKQ [4H2586-bN]
3. DEIQQLEQEIQELKQKNQELEWKIQELKQ [4H118-bN]
4. DEIQQLEQEIQELKQKIQELKWKNQELKQ [4H112-bN]
5. DKNQQLKQKIQELEQEIQELEWENQELEQ [4H3843-bN]
6. DKNQQLKQENQELKQEIQELEWKIQELKQ [4H3782-bN]
7. DENQQLEQENQELKQKIQELKWEIQELEQ [4H1257-bN]

Return:
[-0.677, -1.01, -0.648, -0.805, -2.09, -0.576, -0.733]

Enquiry: Reported interaction score for DENAQLEQENAELKQKIAELKWEIAQLEQ [4H1257-bA] : what is it?
Return: -2.6
